System: NCI/ADR-RES
Assay: NCI tumour cell line growth inhibition, 48 h
Active and inactive are the calls of the source. Cut-off read from the data, not from the text of the source: active = GI50 up to about 1.1 µM and inactive = higher.
Here the recorded GI50 is given for each entry.

Look over these answered cases.
>  <molecule>
CC(C)NC(=O)OCc1c(COC(=O)NC(C)C)c(-c2ccc[n+](COC(=O)Cc3ccccc3)c2)n2c1CCC2

>  <target or system>
NCI/ADR-RES

>  <GI50>
36.6 µM (inactive)

$$$$
>  <molecule>
CCOC(=O)C(=O)C(CCC(=O)c1ccc2ccccc2c1O)C(=O)OCC (stereo not given)

>  <target or system>
NCI/ADR-RES

>  <GI50>
> 100 µM (inactive)

$$$$
>  <molecule>
[N-]=[N+]=NC1CC(n2ccc(N)nc2=O)OC1COP(=O)(O)OP(=O)(O)OP(=O)(O)O (stereo not given)

>  <target or system>
NCI/ADR-RES

>  <GI50>
> 100 µM (inactive)

$$$$
>  <molecule>
N#CC1=C(N)OC(c2ccc([N+](=O)[O-])cc2)C1(C#N)C#N (stereo not given)

>  <target or system>
NCI/ADR-RES

>  <GI50>
19.6 µM (inactive)

$$$$
>  <molecule>
O=C(Nc1ccccc1F)c1cc2ccc(O)cc2o/c1=N\c1cccc(C(F)(F)F)c1

>  <target or system>
NCI/ADR-RES

>  <GI50>
3.22 µM (inactive)

$$$$
>  <molecule>
C/C(=N\NC(N)=S)c1ccccn1.OB(O)c1ccccc1

>  <target or system>
NCI/ADR-RES

>  <GI50>
3.7 µM (inactive)

$$$$
>  <molecule>
CCC1C(c2cccc(OC)c2O)c2cc3c(cc2OC1N1CCCC1)OCO3 (stereo not given)

>  <target or system>
NCI/ADR-RES

>  <GI50>
15.7 µM (inactive)

$$$$
>  <molecule>
C=C/C(C)=C\CC1[C@](C)(O)CC[C@H]2C(C)(C)C(=O)CC[C@]12C (stereo not given in full)

>  <target or system>
NCI/ADR-RES

>  <GI50>
60 µM (inactive)

$$$$

# return recorded GI50 for entry COc1ccc(/N=N/c2c(O)ccc3ccccc23)cc1
22.4 µM (inactive)

# return recorded GI50 for entry COc1cc2c(cc1OC)C1=Cc3ccc(OC)c(OC)c3C(C#N)N1CC2 (stereo not given)
> 100 µM (inactive)
